- Test system: HEK-293T
- method: Multiplex assay against HEK293T
- Type: toxicity, cell-based
- conditionParameters: human, 48 h, 1 µM, compound concentration 1 uM, replicate 2
Is Population Mitotic Cells (%) at least 80%? Then rule met. If not, rule not met.

// below: answered compounds
{"compound": "CCOc1cc(C(=O)N2CCC(N3CCN(C)CC3)CC2)ccc1Nc1ncc2c(n1)N(C1CCCC1)c1ccccc1C(=O)N2C", "category": "rule not met"}
{"compound": "O=C1N/C(=N/c2ccccc2F)S/C1=C\\c1ccc(C(=O)O)cc1", "category": "rule met"}
{"compound": "O=C(Nc1ccc(Cl)cc1)Nc1cccc(-c2cccc(N3CCCC3)n2)c1", "category": "rule met"}
{"compound": "S=C(NCCCc1c[nH]cn1)NCCCN(Cc1ccc(Cl)c(Cl)c1)c1ccc(Br)cn1", "category": "rule not met"}
{"compound": "CCn1c(=O)c(-c2ccc(-c3cncs3)cc2Cl)cc2cnc(Nc3ccc(N4CCN(C)CC4)cc3)nc21", "category": "rule met"}
{"compound": "O=C(Nc1ccc(-n2nc(-c3cccnc3)cc2C(F)(F)F)cn1)c1ccc(-c2ccccc2)c(F)c1 [BI 2049]", "category": "rule met"}

Incoming: # check: Population Mitotic Cells (%) of CCCS(=O)(=O)c1nc(NC2CC2)cc(-c2ccc3c(ccn3C3CC(C)(C)NC(C)(C)C3)c2)n1 is greater than or equal to 80%
Outgoing: rule not met

Incoming: Determine whether this compound has Population Mitotic Cells (%) no lower than 80%: CN1CCC(=C2c3ccccc3CC(=O)c3sccc32)CC1.O=C(O)/C=C/C(=O)O [KETOTIFEN FUMARATE]
Outgoing: rule met

Incoming: For this compound, is measured Population Mitotic Cells (%) 80% or higher? CCOC(=O)c1c(C)[nH]c2ccc3c(c12)CN1CCc2cc(OC)ccc2C1O3 (configuration not stated)
Outgoing: rule not met

Incoming: Does Population Mitotic Cells (%) meet or surpass 80% for Cl.O=c1c2cccn2c2ccccc2n1CCCN1CCC(c2ccc(Cl)cc2)CC1 ?
Outgoing: rule not met

Incoming: Determine whether measured Population Mitotic Cells (%) meets or exceeds 80% for O=C(Nc1ccc(-c2ccnc(Nc3ccc(N4CCOCC4)cc3)n2)cc1)[C@@H]1CCCN1
Outgoing: rule met

Incoming: Please indicate if the recorded Population Mitotic Cells (%) for CCCn1c(=O)c2[nH]c(-c3cnn(Cc4cccc(C(F)(F)F)c4)c3)nc2n(CC)c1=O [GS 6201] meets or exceeds 80%.
Outgoing: rule met

Incoming: Check the entry CNc1cc(Oc2cc(C(=O)Nc3cc(N4CCN(C)CC4)cc(C(F)(F)F)c3)ccc2C)ncn1 : does Population Mitotic Cells (%) equal or exceed 80%?
Outgoing: rule not met

Incoming: Is Population Mitotic Cells (%) at least 80%? Consider CCc1cccc(CC)c1NC(=O)c1nn(C)c2c1CCc1cnc(Nc3ccc(C(=O)NC4CCN(C)CC4)cc3OC(F)(F)F)nc1-2
Outgoing: rule not met

Incoming: Threshold query (Population Mitotic Cells (%) >= 80%) on CN(C)C(=O)C(CCN1CCC(O)(c2ccc(Cl)cc2)CC1)(c1ccccc1)c1ccccc1.Cl [LOPERAMIDE HYDROCHLORIDE]
Outgoing: rule not met

Incoming: Reported Population Mitotic Cells (%) reaches at least 80% for C=C1/C(=C\C=C2/CCC[C@]3(C)[C@@H]([C@H](C)/C=C/[C@H](C)C(C)C)CC[C@@H]23)C[C@@H](O)C[C@@H]1O [DOXERCALCIFEROL] ?
Outgoing: rule met

###

- Test system: Fibroblast
- method: Multiplex assay against human fibroblast
- Format: toxicity, cell-based
- conditionParameters: 48 h, 1 µM, compound concentration 1 uM, replicate 2
Label 0.0 if Population Mitochondria Different-Phenotype (%) falls below 4%; label 1.0 in every other case.

// known answers, use as guide
{"compound": "Cl.O=c1c2cccn2c2ccccc2n1CCCN1CCC(c2ccc(Cl)cc2)CC1", "category": 0.0}
{"compound": "CCCS(=O)(=O)c1nc(NC2CC2)cc(-c2ccc3c(ccn3C3CC(C)(C)NC(C)(C)C3)c2)n1", "category": 1.0}

Incoming: Dear colleague, could you confirm whether CN(C)C(=O)C(CCN1CCC(O)(c2ccc(Cl)cc2)CC1)(c1ccccc1)c1ccccc1.Cl [LOPERAMIDE HYDROCHLORIDE] has Population Mitochondria Different-Phenotype (%) at or above 4%?
Outgoing: 1.0

Incoming: For this compound, is measured Population Mitochondria Different-Phenotype (%) 4% or higher? S=C(NCCCc1c[nH]cn1)NCCCN(Cc1ccc(Cl)c(Cl)c1)c1ccc(Br)cn1
Outgoing: 0.0

Incoming: Record CN1CCC(=C2c3ccccc3CC(=O)c3sccc32)CC1.O=C(O)/C=C/C(=O)O [KETOTIFEN FUMARATE] ; criterion: Population Mitochondria Different-Phenotype (%) no lower than 4%. Met?
Outgoing: 0.0

Incoming: Does the reported Population Mitochondria Different-Phenotype (%) for CCOc1cc(C(=O)N2CCC(N3CCN(C)CC3)CC2)ccc1Nc1ncc2c(n1)N(C1CCCC1)c1ccccc1C(=O)N2C fall at or above the 4% mark?
Outgoing: 1.0

###

- Test system: HEK-293T
- method: Incucyte cell viability with HEK293T; also: filed as whole numbers so only -1 and 0 and 1 occur
- Format: toxicity, cell-based
- conditionParameters: human, 0 h, 10 µM, compound concentration 10 uM, replicate number 1, timepoint 0 hours
observationType: Growth Rate
// no unit, no text: just the number

Solved cases (3 shown):
{"molecule": "CO[C@@H](C)c1c(Nc2ccc([C@@H](N(C)C(=O)C3CCS(=O)(=O)CC3)C(F)(F)F)cc2)cnc2cc(Cl)nn12 [NVS-MALT1-C]", "measuredTarget": "HEK-293T", "measurement": 1}
{"molecule": "O=C(Nc1ccc(Cl)cc1)Nc1cccc(-c2cccc(N3CCCC3)n2)c1", "measuredTarget": "HEK-293T", "measurement": 1}
{"molecule": "C[C@@H]1CN(c2cc(-c3n[nH]c4ccc(OC5(C)CC5)cc34)ncn2)C[C@H](C)O1 [MLi-2]", "measuredTarget": "HEK-293T", "measurement": 0}

Incoming: Param item = Cc1nnn(-c2ccc(-c3ccc(C4(C(=O)O)CC4)cc3)cc2)c1NC(=O)O[C@H](C)c1ccccc1 ; retrieve measured Growth Rate.
Outgoing: 0

Incoming: Please look up its Growth Rate: Cc1oncc1C(=O)Nc1ccc(C(F)(F)F)cc1 [LEFLUNOMIDE]
Outgoing: 1

Incoming: Fill in: Growth Rate of Cl.Oc1ccc2c3c1O[C@H]1c4[nH]c5c(c4C[C@@]4(O)[C@@H](C2)N(CC2CC2)CC[C@]314)C[C@@]1(O)[C@H]2Cc3ccc(O)c4c3[C@@]1(CCN2CC1CC1)[C@H]5O4 is ___
Outgoing: 0

Incoming: Fill in the blank: the reported Growth Rate of C=CC(=O)Nc1ccc2[nH]c(=O)n(C3CCN(C(=O)c4ccc(-c5nc6cc[nH]c(=O)c6cc5-c5ccccc5)cc4)CC3)c2c1 is ____.
Outgoing: 0

###

- Tested on: U2OS
- method: Multiplex assay against U2OS
- Assay type: toxicity, cell-based
- conditionParameters: human, 12 h, 10 µM, compound concentration 10 uM, replicate 2
Use 70% as the dividing line for Population Healthy Nuclei (%), with the line itself on the MET side and lower values as NOT MET.

Some solved cases for reference:
{"molecule": "O=C1N/C(=N/c2ccccc2F)S/C1=C\\c1ccc(C(=O)O)cc1", "category": "MET"}
{"molecule": "CCCS(=O)(=O)Nc1ccc(F)c(C(=O)c2c[nH]c3ncc(Cl)cc23)c1F", "category": "MET"}
{"molecule": "CCn1c(=O)c(-c2ccc(-c3cncs3)cc2Cl)cc2cnc(Nc3ccc(N4CCN(C)CC4)cc3)nc21", "category": "MET"}
{"molecule": "Cc1ccc2nc(NCCN)c3ncc(C)n3c2c1.O=C(O)C(F)(F)F.O=C(O)C(F)(F)F", "category": "NOT MET"}
{"molecule": "O=C(Nc1ccc(-n2nc(-c3cccnc3)cc2C(F)(F)F)cn1)c1ccc(-c2ccccc2)c(F)c1", "category": "MET"}
{"molecule": "CCn1cc(-c2ccnc3[nH]c(-c4cccc(CN(C)C)c4)cc23)c(-c2ccc(NC(=O)N(C)C)cc2)n1", "category": "NOT MET"}

Incoming: Quick check: does CN1CCN(C(=O)C(C)(C)c2ccc(C(=O)Nc3cn4cc(-c5cc(C(C)(C)C)cc(C(C)(C)C)c5)ccc4n3)cc2)CC1 have Population Healthy Nuclei (%) greater than or equal to 70%?
Outgoing: MET

Incoming: State whether the measured Population Healthy Nuclei (%) reaches 70%, counting equality as reaching it, for C=CCn1c(=O)c2cnc(Nc3ccc(N4CCN(C)CC4)cc3)nc2n1-c1cccc(C(C)(C)O)n1
Outgoing: NOT MET

Incoming: Decide: is the reported value of Population Healthy Nuclei (%) for Cn1nc(C(=O)NCc2ccc(C(=O)O)cc2)cc1-c1ccc2[nH]ccc2c1 equal to or greater than 70%?
Outgoing: MET

Incoming: Entry Cc1ccc(C(=O)Nc2cccc(C(F)(F)F)c2)cc1Nc1nc(-c2cccnc2)nc2c1cnn2C : is its Population Healthy Nuclei (%) no less than 70%?
Outgoing: NOT MET

Incoming: Test whether the molecule Cl.O=c1c2cccn2c2ccccc2n1CCCN1CCC(c2ccc(Cl)cc2)CC1 records Population Healthy Nuclei (%) of 70% or higher.
Outgoing: NOT MET

Incoming: Could you tell me if the measured Population Healthy Nuclei (%) of CN(C)C(=O)C(CCN1CCC(O)(c2ccc(Cl)cc2)CC1)(c1ccccc1)c1ccccc1.Cl [LOPERAMIDE HYDROCHLORIDE] reaches 70% or more?
Outgoing: NOT MET

Incoming: Does O=C(Cc1ccc(-c2ccc(OCCN3CCOCC3)cc2)cn1)NCc1ccccc1 have a reported Population Healthy Nuclei (%) of at least 70%?
Outgoing: MET

Incoming: Check this molecule for Population Healthy Nuclei (%) at or above 70%: CCc1cccc(CC)c1NC(=O)c1nn(C)c2c1CCc1cnc(Nc3ccc(N4CCN(C)CC4)cc3OC)nc1-2
Outgoing: MET

Incoming: Test whether the molecule COc1cc(N2CCN(C)CC2)ccc1Nc1ncc2c(n1)N(C)c1ccccc1C(=O)N2C records Population Healthy Nuclei (%) of 70% or higher.
Outgoing: NOT MET

Incoming: Is reported Population Healthy Nuclei (%) greater than or equal to 70% here: CNc1cc(Oc2cc(C(=O)Nc3cc(N4CCN(C)CC4)cc(C(F)(F)F)c3)ccc2C)ncn1
Outgoing: NOT MET

Incoming: Given CN1CCC(=C2c3ccccc3CC(=O)c3sccc32)CC1.O=C(O)/C=C/C(=O)O [KETOTIFEN FUMARATE] , state whether its Population Healthy Nuclei (%) is at least 70%.
Outgoing: MET
